- Experiment: NCI Yeast Anticancer Drug Screen. Data for the bub3 strain (AID 167)
- Reported Conditions: S. cerevisiae bub3 mutant strain, at 50.0 µM
The panel holds about 79,000 compounds, 15% with a hit somewhere; the sample as a whole holds those more often. The source made the active and inactive calls. Cut-off read from the data, not from the text of the source: active = growth inhibition above about 70%; inactive = the rest.
Outcome (select one): active, inactive

Observe how each entry below is paired with its result.
| Compound | Label |
| --- | --- |
| CCc1cc(-c2ccco2)c(C#N)c(=S)n1C1OC(COC(C)=O)C(OC(C)=O)C(OC(C)=O)C1OC(C)=O (configuration not stated) | inactive |
| c1ccc(-n2ncc3ccc4cccn4c32)cc1 | active |
| O=C(OC12CCCCC1CCCC2)c1ccc([N+](=O)[O-])cc1 (configuration not stated) | active |
| O=C(CNc1cccc(Cl)c1)Nn1c(-c2ccccc2)nc2ccccc2c1=O | active |
| O=C1c2cc(O)ccc2C(=O)c2c1ccc(O)c2O | active |
| CC(=O)C1CCC2C3CC(F)C4(O)CC(O)CCC4(C)C3CCC12C (configuration not stated) | active |
| Cc1cc(C(=O)c2ccccc2)ccc1O | inactive |
| CCCCCCCCCCCCNC(=O)OCC(C)O (configuration not stated) (tested in a mixture with another compound) | active |
| N#C/C(=C\C(Cl)=C/c1ccccc1)C(N)=S | active |
| NC(N)=Nc1ccc(N=C(N)N)cc1 | active |

Prompt line: Test call for this compound, please: CC(C)CC(NC(=O)SCc1ccccc1)C(=O)O (configuration not stated)
Response line: inactive

Prompt line: Test call for this compound, please: O=C(CC(=O)c1ccncc1)c1ccccc1
Response line: active

Prompt line: Test call for this compound, please: Cc1ccc(S(=O)(=O)C(=S)Sc2ccccc2)cc1
Response line: inactive

Prompt line: Test call for this compound, please: O/N=C\c1ccc(-c2ccccc2)cc1
Response line: active
